Exercise: for every item that follows, state its recorded Percent Effect.
# Species on record: Homo sapiens
# ASSAY NOTES: To identify inhibition of the IFN signalling (Jak-Stat) pathway via expression of an eGFP reporter gene under the control of an IFN-stimulated response element (ISRE) containing MxA promoter.
# Format: functional
# Set-up: scale not given: direction of the effect not stated beside the values
# RECORDED CONDITIONS: 30 µM
# unit: % | format: bare number

Query :: I am curious: what Percent Effect value has been reported for CC(C)CCCNC(=O)Nc1ccc(F)c(C(N)=O)c1 ?
Result :: 14.9

Query :: Need Percent Effect, item Cc1nc(CN2CCCC(CCNS(C)(=O)=O)C2)c[nH]1 (stereo unspecified)
Result :: 7.77

Query :: Fill blank: measured Percent Effect of the compound CCS(=O)(=O)N1C[C@H]2CCC[C@@]2(COc2ccccn2)C1 is ____.
Result :: 33

Query :: Given the compound COCc1nc(C(=O)NS(=O)(=O)c2cc(F)ccc2F)cs1 , what is its reported Percent Effect?
Result :: 22.9

Query :: Consider the compound shown here: CC(=O)N1CCC2(CCN(C(=O)c3ccc(Cl)c(C(F)(F)F)c3)CC2)C1 What is its recorded Percent Effect?
Result :: -12.1

Query :: I would be grateful if you could share the reported Percent Effect for CCc1cnc(CN2CCC(N(C)Cc3noc(C4CC4)n3)C2)o1 (stereo unspecified) .
Result :: 5.76

Query :: Given the compound Cc1cc(C(=O)N2CCCCC2c2nc(C)cs2)[nH]n1 (stereo unspecified) , what is its reported Percent Effect?
Result :: -9.54

Query :: Find the recorded Percent Effect belonging to Cc1ccc2c(n1)N(CCn1cccn1)CCN(C(=O)NC1CC1)C2 and report it.
Result :: -2.83

Query :: Given O=C1C(NCc2nnc3n2CCCC3)CCN1c1ccccc1 (stereo unspecified) , state its recorded Percent Effect.
Result :: 18.5

Query :: Report Percent Effect for CCc1nnc2n1CCN(C(=O)c1cc3cc(F)ccc3[nH]1)C2 please.
Result :: -24.4

Query :: For CC(C)(C)c1nnc(CN2CCN(S(C)(=O)=O)CC2)o1 , what is its reported Percent Effect?
Result :: 5.81

* * *

# TARGET OR SYSTEM: AMP-activated protein kinase, AMPK (Homo sapiens) (UniProt P54646+O43741+P54619+Q9UGJ0+Q9Y478+Q13131+Q9UGI9)
# ASSAY NOTES: AMP-dependent Kinase enzyme assay. An in vitro enzyme assay that detects ADP turnover that is directly proportional to AMPK activity. This uses naive AMPK that is activated during the assay with MK-8722
# Type: functional
# Design: scale not given: direction of the effect not stated beside the values
# RECORDED CONDITIONS: 30 µM
MEASURED PARAMETER: Percent Effect (%)
# number only, unit % dropped from output

Query :: Can you look up the measured Percent Effect of N#Cc1cn(C2CC2)c(=O)n(CC(O)c2ccccc2F)c1=O (stereo unspecified) for me?
Result :: -2.46

Query :: Query: Percent Effect; subject: CCOCCN1CCn2c(C)nnc2C1
Result :: 2.63

Query :: Could you share which Percent Effect value was measured for O=C(CCc1ccccc1)N1CCn2cc(CN3CCCC3)nc2C1 ?
Result :: -2.41

Query :: Record request: Percent Effect value, item Cc1cc(N2CCC3(CCC(=O)N(CC4CC4)C3)CC2)nc(N)n1
Result :: -2.2

Query :: Item O=C(NCc1ccco1)[C@H]1C[C@H]2OCC[C@H]2N(C(=O)c2ccncc2)C1 has what recorded Percent Effect?
Result :: 11.1

Query :: State the recorded Percent Effect for this entry: CNc1cc(CCNC(=O)c2cccnc2)nc(-c2ccncc2)n1
Result :: 12.1

* * *

# Tested on: Trypanosoma cruzi
# ASSAY NOTES: Trypanosoma cruzi phosphomannomutase and mannose-1-phosphate guanylyltransferase assay
# Assay type: functional
# Design: scale not given: direction of the effect not stated beside the values
# RECORDED CONDITIONS: 10 µM
MEASURED PARAMETER: Percent Effect
Answer format: value, then unit.

Query :: Fill in the blank: the reported Percent Effect of O=S(=O)(C1CC1)N1CCO[C@H]2[C@H](OCC3CCCC3)CC[C@@H]21 is ____.
Result :: 4.83%

Query :: Recorded Percent Effect of COc1cccc(CNC(=O)N2CCN(Cc3cc(C)on3)CC2)c1 , please.
Result :: -6.33%

Query :: Fill in: Percent Effect of Cc1nn(C)c2c(N3CCN(C(=O)NC4CCCCC4)CC3)ncnc12 is ___
Result :: -5.5%

Query :: GET /values?readout=Percent Effect&item= O=C(COc1coc(CN2CCCCC2)cc1=O)NCc1ccccc1
Result :: -4.38%

Query :: # query: Percent Effect of entry CN(CCO)C(=O)c1coc(CN2CCN(c3ccccc3F)CC2)n1
Result :: -0.0974%

Query :: Requested field: Percent Effect. Item: COc1ccc(CNCc2ccc(N3CCCCC3)nc2)cc1OC
Result :: 5.92%

Query :: Need Percent Effect of O=C(O)c1cc(NS(=O)(=O)c2cccc(Cl)c2F)ccc1Cl , thanks.
Result :: -5.8%

Query :: State the recorded Percent Effect for this entry: CC(C)c1cccc(CSc2nnc(CN3CCCC3=O)o2)n1
Result :: -0.0974%

Query :: Which Percent Effect is reported for this compound? NC(=O)c1ccc(CN2CCCC(N3CCCC3)C2)cc1 (stereo unspecified)
Result :: 2.54%

Query :: Please give the measured Percent Effect for this compound: COc1ccc(C2=C(C)C(N3CCc4ccccc4C3)=NS2(=O)=O)cc1
Result :: 3.45%

Query :: Please look up its Percent Effect: CN1CCCC1c1cccc(Cc2ccccc2F)n1 (stereo unspecified)
Result :: -0.79%

* * *

Please provide measured Percent Effect for the entries that follow.
# Organism: Homo sapiens
# ASSAY NOTES: To identify inhibition of the IFN signalling (Jak-Stat) pathway via expression of an eGFP reporter gene under the control of an IFN-stimulated response element (ISRE) containing MxA promoter.
# Type: functional
# Parameters: scale not given: direction of the effect not stated beside the values
# RECORDED CONDITIONS: 30 µM
Write it as a number; the unit % goes unstated.

Query :: # Percent Effect lookup, item Cn1c(C(F)(F)F)nn(CCNC(=O)NCc2ccccc2)c1=O
Result :: 8.74

Query :: What Percent Effect value was documented for this compound, O=C(c1ccc(F)cc1Cl)N1CCC(Nc2cccnn2)CC1 ?
Result :: 15.6

Query :: # get_value(readout='Percent Effect', item= Cc1ccc(C2C3=C(COC3=O)Nc3[nH]nc(C)c32)cc1C (configuration not stated) )
Result :: 30.1

Query :: State the recorded Percent Effect for this entry: CNc1cccc(C2CCCN(C(C)=O)C2)n1 (configuration not stated)
Result :: 17.4

Query :: # query: Percent Effect of entry Cc1cc(N2CCC3(CCC(=O)N(CC4CC4)C3)CC2)nc(N)n1
Result :: 7.43

Query :: Fill in: Percent Effect of Cc1cccc(OCCC(=O)N2CCCN(CC(N)=O)CC2)c1C is ___
Result :: -12.7

Query :: Fill in the blank: the reported Percent Effect of CN(C)C(=O)N1Cc2nnn(C)c2C(COCC2CC2)C1 (configuration not stated) is ____.
Result :: -7.39

Query :: Look up Percent Effect: COc1ncc(C2(O)CCN(Cc3c(F)cccc3F)CC2)c(OC)n1
Result :: 15.3

Query :: Given the entry CCOCCN1CCn2c(C)nnc2C1 , report its measured Percent Effect.
Result :: 11.9

Query :: Reported Percent Effect, compound Cc1ccc(CN2CC[C@H]3C[C@@H](c4nc(C5CC5)cs4)O[C@@H]3C2)o1 : ____
Result :: 36.5

Query :: Suppose we examine the compound CN(Cc1ccsc1)C(=O)c1cccc(NS(C)(=O)=O)c1 ; what Percent Effect value has been reported?
Result :: 14.4

Query :: Consider the compound shown here: O=C(NCc1nnc2n1CCC2)N(Cc1ccco1)C1CC1 What is its recorded Percent Effect?
Result :: 14.6

* * *

# TARGET OR SYSTEM: Sialic acid-binding Ig-like lectin 9 (Homo sapiens)
# ASSAY NOTES: Hs-Siglec9 ALPHAscreen SOP 20170721
# Set-up: scale not given: direction of the effect not stated beside the values
# RECORDED CONDITIONS: 10 µM
Please respond with reported Percent Effect for every item in the list.
Put down the number, then write its unit next to it.

Query :: What value of Percent Effect has been recorded for this entry: CCn1cc(N2Cc3nc(N4CCOCC4)ncc3C2=O)cn1
Result :: 0.208%

Query :: Entry Cc1cccc(NC(=O)NCCCn2nc3ccccn3c2=O)c1C : reported Percent Effect = ?
Result :: -5.5%

Query :: May I ask what Percent Effect has been recorded for CCCc1c(C(=O)NC2CCCC2)nnn1-c1ccc(OC)cc1 ?
Result :: -6.12%

Query :: Which Percent Effect value is on record for Cc1cc(C)c2c(OCC(=O)NC(C)C)nn(C)c2n1 ?
Result :: 25.4%

Query :: Any idea what its Percent Effect is? The molecule is Cn1cccc1-c1cc(C(=O)N2CC(c3cccnc3)C2)[nH]n1
Result :: 4.47%

Query :: Entry COC(=O)CCc1c(C)nc2cc(O)nn2c1C has what Percent Effect?
Result :: 6.03%

Query :: Quick one: Percent Effect of CCC1CN(CCC(=O)N(C)C)CCN1CCOC (configuration not stated) ?
Result :: 3.32%

Query :: What value of Percent Effect has been reported for the following molecule? CCOc1cc(C(=O)N2CCCC(n3cncn3)C2)ccc1C (configuration not stated)
Result :: -1.22%

Query :: What measured Percent Effect goes with CC(NC(=O)NCC1(c2ccccc2)CCC1)c1nncn1C (configuration not stated) ?
Result :: -5.58%

Query :: Would you kindly share the measured Percent Effect for Cc1nc(-c2ccsc2)ccc1C(=O)NCCC1CCCO1 (configuration not stated) ?
Result :: 10%

Query :: Field request: Percent Effect | item: Cn1ncc2c1C(COCC1CC1)CN(Cc1nccs1)C2 (configuration not stated)
Result :: 0.425%

Query :: # get_value(readout='Percent Effect', item= CN(c1ccncn1)C1CC2(CCN(C(=O)c3ccsc3)C2)C1 (configuration not stated) )
Result :: 0.226%
